The measured values listed here are drawn from patent US10385108B2.

Can you tell me Ki for the items I'm about to list?
- subject-of-test: MC4R (Homo sapiens, UniProt P32245)
- Sequence (P32245 whole entry): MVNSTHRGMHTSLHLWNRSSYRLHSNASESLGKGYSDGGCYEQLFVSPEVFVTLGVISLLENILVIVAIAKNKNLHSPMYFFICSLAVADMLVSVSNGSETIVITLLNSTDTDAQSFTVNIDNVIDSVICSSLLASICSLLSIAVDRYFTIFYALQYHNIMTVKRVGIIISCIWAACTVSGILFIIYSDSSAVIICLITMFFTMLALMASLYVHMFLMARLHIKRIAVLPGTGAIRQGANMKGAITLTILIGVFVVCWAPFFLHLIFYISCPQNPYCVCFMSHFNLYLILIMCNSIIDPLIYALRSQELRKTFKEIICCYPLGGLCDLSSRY
Where a SMILES comes first, the peptide text is derived from it. [ ]: non-standard residue; d: D form. dCha = N[C@H](CC1CCCCC1)C(=O)O

## Task So what's the measured Ki for this one? CC[C@@H](C)[C@@H](NC(=O)[C@@H](CO)NC(=O)[C@@H](Cc1c[nH]cn1)NC(=O)[C@@H](CC1CCCCC1)NC(=O)[C@@H](CCCNC(=N)N)NC(=O)[C@@H](Cc1c[nH]c2ccccc12)NC(=O)CNC(=O)[C@@H](CCCCN)NC(=O)[C@H]1CCCN1C(=O)[C@H](NC(C)=O)C(C)C)C(=O)N[C@@H](C(=O)N[C@H](CO)C(=O)N[C@H](CO)C(N)=O)[C@H](C)CC [compound 891, vpkGwr(D-Cha)hsiiss] (Ac-[dV][dP][dK]G[dW][dR][dCha][dH][dS][dI][dI][dS][dS]-NH2)
## Result ~3.2 µM

## Task So what's the measured Ki for this one? `CCCCSCC[C@@H](NC(=O)[C@@H](CCC(=O)O)NC(=O)[C@@H](Cc1c[nH]cn1)NC(=O)[C@@H](CC1CCCCC1)NC(=O)[C@@H](CCCNC(=N)N)NC(=O)[C@@H](Cc1c[nH]c2ccccc12)NC(=O)CNC(=O)[C@@H](CCCCN)NC(=O)[C@H]1CCCN1C(=O)[C@H](NC(C)=O)C(C)C)C(=O)N[C@H](CO)C(=O)N[C@H](Cc1ccc(O)cc1)C(=O)N[C@H](CO)C(N)=O`
## Result ~14 µM

## Task So what's the measured Ki for this one? CC[C@@H](C)[C@@H](NC(=O)[C@@H](CO)NC(=O)[C@@H](Cc1c[nH]cn1)NC(=O)[C@H](Cc1ccccc1)NC(=O)[C@@H](CCCNC(=N)N)NC(=O)[C@@H](Cc1c[nH]c2ccccc12)NC(=O)CNC(=O)[C@@H](CCCCN)NC(=O)[C@H]1CCCN1C(=O)[C@H](NC(C)=O)C(C)C)C(=O)N[C@@H](C(=O)N[C@H](CO)C(=O)N[C@H](CO)C(N)=O)[C@H](C)CC [compound 880, vpkGwrFhsiiss] (Ac-[dV][dP][dK]G[dW][dR]F[dH][dS][dI][dI][dS][dS]-NH2)
## Result ~10 µM

## Task So what's the measured Ki for this one? CC[C@@H](C)[C@@H](NC(=O)[C@@H](CO)NC(=O)[C@@H](Cc1c[nH]cn1)NC(=O)[C@@H](Cc1ccccc1)NC(=O)[C@@H](CCCNC(=N)N)NC(=O)[C@@H](Cc1c[nH]c2ccccc12)NC(=O)CNC(=O)[C@@H](CCCCN)NC(=O)[C@H]1CCCN1C(=O)[C@H](NC(C)=O)C(C)C)C(=O)N[C@@H](C(=O)N[C@H](CO)C(=O)N[C@H](CO)C(N)=O)[C@H](C)CC [compound 886, vpkgwrfhsiiss] (Ac-[dV][dP][dK]G[dW][dR][dF][dH][dS][dI][dI][dS][dS]-NH2)
## Result ~10 µM

###

pKi: −log10 of the molar value. Where a SMILES comes first, the peptide text is derived from it. [ ]: non-standard residue; d: D form. dCha = N[C@H](CC1CCCCC1)C(=O)O
experimental-endpoint: pKi

## Task Provide value of pKi for this record tested with MC3R (Homo sapiens): CC[C@@H](C)[C@@H](NC(=O)[C@@H](CO)NC(=O)[C@@H](Cc1c[nH]cn1)NC(=O)[C@@H](Cc1ccccc1)NC(=O)[C@@H](CCCNC(=N)N)NC(=O)[C@@H](Cc1c[nH]c2ccccc12)NC(=O)CNC(=O)[C@@H](CCCCN)NC(=O)[C@H]1CCCN1C(=O)[C@H](NC(C)=O)C(C)C)C(=O)N[C@@H](C(=O)N[C@H](CO)C(=O)N[C@H](CO)C(N)=O)[C@H](C)CC [compound 886, vpkgwrfhsiiss] (Ac-[dV][dP][dK]G[dW][dR][dF][dH][dS][dI][dI][dS][dS]-NH2)
Sequence (P41968 whole entry): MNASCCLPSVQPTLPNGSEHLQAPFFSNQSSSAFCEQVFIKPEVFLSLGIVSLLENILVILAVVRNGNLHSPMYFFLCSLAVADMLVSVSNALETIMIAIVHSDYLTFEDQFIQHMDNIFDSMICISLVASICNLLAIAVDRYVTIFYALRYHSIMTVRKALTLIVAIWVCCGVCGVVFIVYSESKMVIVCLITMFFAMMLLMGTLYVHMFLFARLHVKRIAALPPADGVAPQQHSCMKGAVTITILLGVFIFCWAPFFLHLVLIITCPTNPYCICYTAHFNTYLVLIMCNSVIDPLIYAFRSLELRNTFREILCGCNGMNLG
## Result ~4.72

## Task Provide value of pKi for this record tested with MC3R (Homo sapiens): CC[C@@H](C)[C@@H](NC(=O)[C@@H](CO)NC(=O)[C@@H](Cc1c[nH]cn1)NC(=O)[C@@H](CC1CCCCC1)NC(=O)[C@@H](CCCNC(=N)N)NC(=O)[C@@H](Cc1c[nH]c2ccccc12)NC(=O)CNC(=O)[C@@H](CCCCN)NC(=O)[C@H]1CCCN1C(=O)[C@H](NC(C)=O)C(C)C)C(=O)N[C@@H](C(=O)N[C@H](CO)C(=O)N[C@H](CO)C(N)=O)[C@H](C)CC [compound 891, vpkGwr(D-Cha)hsiiss] (Ac-[dV][dP][dK]G[dW][dR][dCha][dH][dS][dI][dI][dS][dS]-NH2)
## Result ~5.10

## Task Provide value of pKi for this record tested with MC3R (Homo sapiens): CC[C@@H](C)[C@@H](NC(=O)[C@@H](CO)NC(=O)[C@@H](Cc1c[nH]cn1)NC(=O)[C@H](Cc1ccccc1)NC(=O)[C@@H](CCCNC(=N)N)NC(=O)[C@@H](Cc1c[nH]c2ccccc12)NC(=O)CNC(=O)[C@@H](CCCCN)NC(=O)[C@H]1CCCN1C(=O)[C@H](NC(C)=O)C(C)C)C(=O)N[C@@H](C(=O)N[C@H](CO)C(=O)N[C@H](CO)C(N)=O)[C@H](C)CC [compound 880, vpkGwrFhsiiss] (Ac-[dV][dP][dK]G[dW][dR]F[dH][dS][dI][dI][dS][dS]-NH2)
## Result ~4.74

## Task Provide value of pKi for this record tested with MC3R (Homo sapiens): `CSCC[C@@H](NC(=O)[C@@H](CCC(=O)O)NC(=O)[C@@H](Cc1c[nH]cn1)NC(=O)[C@@H](Cc1ccccc1)NC(=O)[C@@H](CCCNC(=N)N)NC(=O)[C@H](Cc1c[nH]c2ccccc12)NC(=O)CNC(=O)[C@@H](CCCCN)NC(=O)[C@H]1CCCN1C(=O)[C@H](NC(C)=O)C(C)C)C(=O)N[C@H](CO)C(=O)N[C@H](Cc1ccc(O)cc1)C(=O)N[C@H](CO)C(N)=O`
## Result ~4.55

## Task Provide value of pKi for this record tested with MC3R (Homo sapiens): `CSCC[C@@H](NC(=O)[C@@H](CCC(=O)O)NC(=O)[C@@H](Cc1c[nH]cn1)NC(=O)[C@H](Cc1ccccc1)NC(=O)[C@@H](CCCNC(=N)N)NC(=O)[C@@H](Cc1c[nH]c2ccccc12)NC(=O)CNC(=O)[C@@H](CCCCN)NC(=O)[C@H]1CCCN1C(=O)[C@H](NC(C)=O)C(C)C)C(=O)N[C@H](CO)C(=O)N[C@H](Cc1ccc(O)cc1)C(=O)N[C@H](CO)C(N)=O`
## Result < 4.52
